The following compounds are shown together with reported melting point values.

Recorded results for 5 compounds are shown here.
O=C1CCC(N2Cc3c(CNC(=O)c4ccc(Cl)c(Cl)c4)cccc3C2=O)C(=O)N1 (stereo unspecified); > 260 °C
COc1ccc2cc(C3=C(CC(=O)O)CCCC3=O)ccc2c1Br; 165 to 166 °C
Cc1cc(OCc2c(-c3c(Cl)cccc3Cl)noc2C(C)C)cnc1Oc1ccc(C(=O)O)cc1; 74 to 76 °C
O=c1cc(-c2ccc(O)cc2)oc2c([N+](=O)[O-])cccc12; 299 to 301 °C
CNC(=O)Oc1ccccc1OC; 90 to 92 °C

Query: Quick one: melting point for O=C1O[C@@H]2C[C@@]1(O)C[C@H]1OC(c3ccccc3)O[C@@H]21 (stereo partly specified) ?
Reply: 96 to 97 °C

Query: Quick one: melting point for `CNCc1ccc2cc(O)ccc2c1` ?
Reply: 168 to 169 °C

Query: Quick one: melting point for CC(=O)Oc1ccc2c(c1)CC=C1C2CCC2(C)C=CCC12 (stereo unspecified) ?
Reply: 77 to 80 °C

Query: Quick one: melting point for O=C1NC(=O)C(S(=O)(=O)c2cccc3c(Br)cccc23)S1 (stereo unspecified) ?
Reply: 189 to 190 °C

Query: Quick one: melting point for O=C(Nc1n[nH]c(=S)s1)NC(Cc1ccccc1)C(=O)NCc1cccnc1 (stereo unspecified) ?
Reply: 99 to 101 °C

Query: Quick one: melting point for `CCc1ccc(Nc2ncc(Cc3ccc(OC)nc3)c3ncccc23)cc1Br` ?
Reply: 142 to 146 °C

Query: Quick one: melting point for `COc1ccc2ncc(C(N)=O)cc2c1` ?
Reply: 93.7 to 95.7 °C

Query: Quick one: melting point for `CCOC(=O)N1CCN(C2=Nc3ccccc3Cc3nccn32)CC1` ?
Reply: 137 to 139 °C

Query: Quick one: melting point for `Cc1c(Cc2cccc(C(F)(F)F)c2)sc2c(-c3cc(F)cc(C(N)=O)c3)cccc12` ?
Reply: 146 to 147 °C

Query: Quick one: melting point for `O=[N+]([O-])C(=Cc1ccoc1)C1=NCCN1Cc1ccc(Cl)nc1` ?
Reply: 175 to 176 °C

Query: Quick one: melting point for `CCNC(=O)N(CC)C(=O)Nc1ccn(Cc2ccccc2Cl)c(=O)c1NC(=O)N[C@@H](CC(=O)O)c1ccc(C)cc1` ?
Reply: 128 to 130 °C

Query: Quick one: melting point for `CCOc1ccc(C2=NN(c3ccc(C(=O)N4CCN(c5cnn(-c6ccccc6)c(=O)c5Cl)CC4)cc3)C(=O)[C@@H]3CC=CC[C@H]23)cc1OCC` ?
Reply: 148 to 151 °C

Query: Quick one: melting point for `CCOc1cc(Cc2cnc(N)nc2N)cc2c1OC(C)(C)C=C2c1cccc(F)c1` ?
Reply: 185 to 186 °C

Query: Quick one: melting point for COc1ccc(/C=C/C(=O)N2CC(CCl)c3c2cc(O)c2ncccc32)cc1 (stereo unspecified) ?
Reply: 208 to 211 °C

Query: Quick one: melting point for `COC(F)(F)C(F)(F)C1(C(F)(F)C(F)(F)OC)OCCO1` ?
Reply: 30 to 40 °C

Hey, just so you know, these numbers are from a melting point compilation (Tetko et al.; mined from patent text by program, amines drawn as free bases though some values may be those of a salt).
